# subject of test: von Hippel-Lindau disease tumor suppressor/Protein arginine N-methyltransferase 5 (Homo sapiens, UniProt O14744+P40337)
# Sequence (O14744 whole entry, looked up): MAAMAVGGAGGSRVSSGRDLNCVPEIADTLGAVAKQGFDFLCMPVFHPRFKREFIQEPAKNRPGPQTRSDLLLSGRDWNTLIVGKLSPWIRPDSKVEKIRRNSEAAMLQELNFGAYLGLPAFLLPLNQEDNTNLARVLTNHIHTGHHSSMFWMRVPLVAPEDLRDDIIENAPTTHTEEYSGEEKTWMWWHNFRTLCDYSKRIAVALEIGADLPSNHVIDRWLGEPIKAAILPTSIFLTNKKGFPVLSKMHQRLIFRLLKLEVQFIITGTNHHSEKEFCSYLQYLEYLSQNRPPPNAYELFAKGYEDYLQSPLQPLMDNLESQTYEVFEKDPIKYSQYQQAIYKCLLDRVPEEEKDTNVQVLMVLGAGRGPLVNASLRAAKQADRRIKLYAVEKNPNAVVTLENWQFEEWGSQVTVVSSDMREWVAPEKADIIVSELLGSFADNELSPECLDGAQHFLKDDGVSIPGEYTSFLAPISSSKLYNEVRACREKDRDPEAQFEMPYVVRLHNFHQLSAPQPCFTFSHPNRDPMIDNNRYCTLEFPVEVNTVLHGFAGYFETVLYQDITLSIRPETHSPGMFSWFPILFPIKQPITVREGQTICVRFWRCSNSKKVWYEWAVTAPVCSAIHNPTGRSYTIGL
# Sequence (P40337 whole entry, looked up): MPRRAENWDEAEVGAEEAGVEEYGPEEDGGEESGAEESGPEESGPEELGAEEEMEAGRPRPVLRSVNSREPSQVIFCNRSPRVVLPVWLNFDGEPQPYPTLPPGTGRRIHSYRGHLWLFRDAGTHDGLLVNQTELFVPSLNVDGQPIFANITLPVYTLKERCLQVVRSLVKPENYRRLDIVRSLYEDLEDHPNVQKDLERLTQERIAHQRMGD
# assay details: PROTAC activity at […]/VHL in human MDA-MB-468 cells assessed as relative protein level at 0.5 uM measured after 24 hrs by Western blot analysis
# Format: cell-based
Calls of active or inactive are those of the source. The calls are words filed in the database; no cut-off is given here.
parameter measured: Activity

Cc1ncsc1-c1ccc(CNC(=O)[C@@H]2C[C@@H](O)CN2C(=O)[C@@H](NC(=O)C2(F)CC2)C(C)(C)C)c(OCC(=O)NCCCCCC(=O)N2CCC(Nc3cc(C(=O)NC[C@H](O)CN4CCc5ccccc5C4)ncn3)CC2)c1: Active
Cc1ncsc1-c1ccc([C@H](CC(=O)NCCOCCOCCC(=O)N2CCC(Nc3cc(C(=O)NC[C@H](O)CN4CCc5ccccc5C4)ncn3)CC2)NC(=O)[C@@H]2C[C@@H](O)CN2C(=O)[C@@H](NC(=O)C2(F)CC2)C(C)(C)C)cc1: Active

---

# subject of test: von Hippel-Lindau disease tumor suppressor/Methylosome protein WDR77 (Homo sapiens, UniProt Q9BQA1+P40337)
# Sequence (P40337 whole entry, looked up): as above
# Sequence (Q9BQA1 whole entry, looked up): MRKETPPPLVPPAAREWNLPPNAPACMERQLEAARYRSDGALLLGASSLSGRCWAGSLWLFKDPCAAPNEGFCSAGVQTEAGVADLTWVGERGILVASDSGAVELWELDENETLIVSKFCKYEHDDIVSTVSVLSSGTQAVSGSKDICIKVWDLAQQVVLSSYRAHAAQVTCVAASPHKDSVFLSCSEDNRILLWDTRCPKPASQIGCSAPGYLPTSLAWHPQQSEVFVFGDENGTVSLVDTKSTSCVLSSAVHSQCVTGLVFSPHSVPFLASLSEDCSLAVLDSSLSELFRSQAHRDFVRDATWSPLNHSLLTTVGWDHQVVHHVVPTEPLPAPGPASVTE
# assay details: PROTAC activity at MEP50/VHL in human MDA-MB-468 cells assessed as relative protein level at 5 uM measured after 24 hrs by Western blot analysis
# Format: cell-based
Active and inactive are the calls of the source. No cut-off for these calls is given here.
parameter measured: Activity

Cc1ncsc1-c1ccc([C@H](C)NC(=O)[C@@H]2C[C@@H](O)CN2C(=O)[C@@H](NC(=O)CCOCCOCCOCCOCCOCCC(=O)N2CCC(Nc3cc(C(=O)NC[C@H](O)CN4CCc5ccccc5C4)ncn3)CC2)C(C)(C)C)cc1: Active
Cc1ncsc1-c1ccc(CNC(=O)[C@@H]2C[C@@H](O)CN2C(=O)[C@@H](NC(=O)C2(F)CC2)C(C)(C)C)c(OCC(=O)NCCC(=O)N2CCC(Nc3cc(C(=O)NC[C@H](O)CN4CCc5ccccc5C4)ncn3)CC2)c1: Active
Cc1ncsc1-c1ccc([C@H](C)NC(=O)[C@@H]2C[C@@H](O)CN2C(=O)[C@@H](NC(=O)COCCOCCOCCOCCOCC(=O)N2CCC(Nc3cc(C(=O)NC[C@H](O)CN4CCc5ccccc5C4)ncn3)CC2)C(C)(C)C)cc1: Active

---

# subject of test: von Hippel-Lindau disease tumor suppressor/Methylosome protein WDR77 (Homo sapiens, UniProt Q9BQA1+P40337)
# assay details: PROTAC activity at MEP50/VHL in human MDA-MB-468 cells assessed as relative protein level at 5 uM measured after 24 hrs by Western blot analysis
# Assay type: cell-based
Calls of active or inactive are those of the source. No cut-off for these calls is given here.
One label from this list, please: active, inactive

Worked cases, answers included:
Cc1ncsc1-c1ccc([C@H](CC(=O)NCCOCCOCCOCCC(=O)N2CCC(Nc3cc(C(=O)NC[C@H](O)CN4CCc5ccccc5C4)ncn3)CC2)NC(=O)[C@@H]2C[C@@H](O)CN2C(=O)[C@@H](NC(=O)C2(F)CC2)C(C)(C)C)cc1: active
Cc1ncsc1-c1ccc([C@H](CC(=O)NCCOCCOCCOCCOCCC(=O)N2CCC(Nc3cc(C(=O)NC[C@H](O)CN4CCc5ccccc5C4)ncn3)CC2)NC(=O)[C@@H]2C[C@@H](O)CN2C(=O)[C@@H](NC(=O)C2(F)CC2)C(C)(C)C)cc1: active
Cc1ncsc1-c1ccc([C@H](CC(=O)NCCOCCC(=O)N2CCC(Nc3cc(C(=O)NC[C@H](O)CN4CCc5ccccc5C4)ncn3)CC2)NC(=O)[C@@H]2C[C@@H](O)CN2C(=O)[C@@H](NC(=O)C2(F)CC2)C(C)(C)C)cc1: inactive
Cc1ncsc1-c1ccc([C@H](CC(=O)NCCCCC(=O)N2CCC(Nc3cc(C(=O)NC[C@H](O)CN4CCc5ccccc5C4)ncn3)CC2)NC(=O)[C@@H]2C[C@@H](O)CN2C(=O)[C@@H](NC(=O)C2(F)CC2)C(C)(C)C)cc1: active
Cc1ncsc1-c1ccc([C@H](C)NC(=O)[C@@H]2C[C@@H](O)CN2C(=O)[C@@H](NC(=O)CCOCCOCCOCCOCCC(=O)N2CCC(Nc3cc(C(=O)NC[C@H](O)CN4CCc5ccccc5C4)ncn3)CC2)C(C)(C)C)cc1: active

IN: // outcome(item) with item = Cc1ncsc1-c1ccc(CNC(=O)[C@@H]2C[C@@H](O)CN2C(=O)[C@@H](NC(=O)C2(F)CC2)C(C)(C)C)c(OCC(=O)NCCCCC(=O)N2CCC(Nc3cc(C(=O)NC[C@H](O)CN4CCc5ccccc5C4)ncn3)CC2)c1
OUT: active

IN: // outcome(item) with item = Cc1ncsc1-c1ccc(CNC(=O)[C@@H]2C[C@@H](O)CN2C(=O)[C@@H](NC(=O)C2(F)CC2)C(C)(C)C)c(OCC(=O)NCCOCCOCCOCCOCCOCCC(=O)N2CCC(Nc3cc(C(=O)NC[C@H](O)CN4CCc5ccccc5C4)ncn3)CC2)c1
OUT: active

IN: // outcome(item) with item = Cc1ncsc1-c1ccc(CNC(=O)[C@@H]2C[C@@H](O)CN2C(=O)[C@@H](NC(=O)C2(F)CC2)C(C)(C)C)c(OCC(=O)NCCCC(=O)N2CCC(Nc3cc(C(=O)NC[C@H](O)CN4CCc5ccccc5C4)ncn3)CC2)c1
OUT: active

---

# subject of test: von Hippel-Lindau disease tumor suppressor/Protein arginine N-methyltransferase 5 (Homo sapiens, UniProt O14744+P40337)
# assay details: PROTAC activity at PRMT5/VHL in human MDA-MB-468 cells assessed as relative protein level at 5 uM measured after 24 hrs by Western blot analysis
# Type: cell-based
Activity calls are given as the source filed them. The rule behind the calls is not given here.
One label from this list, please: 1 (yes) = active, 0 (no) = inactive

Worked cases, answers included:
Cc1ncsc1-c1ccc([C@H](CC(=O)NCCOCCC(=O)N2CCC(Nc3cc(C(=O)NC[C@H](O)CN4CCc5ccccc5C4)ncn3)CC2)NC(=O)[C@@H]2C[C@@H](O)CN2C(=O)[C@@H](NC(=O)C2(F)CC2)C(C)(C)C)cc1: 0 (no)
Cc1ncsc1-c1ccc([C@H](C)NC(=O)[C@@H]2C[C@@H](O)CN2C(=O)[C@@H](NC(=O)CCOCCOCCOCCOCCOCCC(=O)N2CCC(Nc3cc(C(=O)NC[C@H](O)CN4CCc5ccccc5C4)ncn3)CC2)C(C)(C)C)cc1: 1 (yes)
Cc1ncsc1-c1ccc(CNC(=O)[C@@H]2C[C@@H](O)CN2C(=O)[C@@H](NC(=O)C2(F)CC2)C(C)(C)C)c(OCC(=O)NCCC(=O)N2CCC(Nc3cc(C(=O)NC[C@H](O)CN4CCc5ccccc5C4)ncn3)CC2)c1: 1 (yes)

IN: // outcome(item) with item = Cc1ncsc1-c1ccc([C@H](CC(=O)NCCOCCOCCC(=O)N2CCC(Nc3cc(C(=O)NC[C@H](O)CN4CCc5ccccc5C4)ncn3)CC2)NC(=O)[C@@H]2C[C@@H](O)CN2C(=O)[C@@H](NC(=O)C2(F)CC2)C(C)(C)C)cc1
OUT: 1 (yes)

---

# assay details: Plasma concentration in Swiss albino mouse at 50 mg/kg, ip measured after 8 hrs by LC-MS/MS analysis
# Type: ADME, organism-based
parameter measured: concentration at 8 h (µM)
Give the number; µM is assumed, so skip it.

IN: May I ask what concentration at 8 h has been recorded for Cc1ncsc1-c1ccc([C@H](CC(=O)NCCOCCOCCOCCOCCOCCC(=O)N2CCC(Nc3cc(C(=O)NC[C@H](O)CN4CCc5ccccc5C4)ncn3)CC2)NC(=O)[C@@H]2C[C@@H](O)CN2C(=O)[C@@H](NC(=O)C2(F)CC2)C(C)(C)C)cc1 ?
OUT: 0.2

---

# subject of test: von Hippel-Lindau disease tumor suppressor/Methylosome protein WDR77 (Homo sapiens, UniProt Q9BQA1+P40337)
# assay details: PROTAC activity at MEP50/VHL in human MDA-MB-468 cells assessed as relative protein level at 0.5 uM measured after 24 hrs by Western blot analysis
# Format: cell-based
The source made the active and inactive calls. The calls are words filed in the database; no cut-off is given here.
One label from this list, please: active, inactive

Worked cases, answers included:
Cc1ncsc1-c1ccc([C@H](C)NC(=O)[C@@H]2C[C@@H](O)CN2C(=O)[C@@H](NC(=O)CCOCCOCCOCCOCCC(=O)N2CCC(Nc3cc(C(=O)NC[C@H](O)CN4CCc5ccccc5C4)ncn3)CC2)C(C)(C)C)cc1: active
Cc1ncsc1-c1ccc([C@H](CC(=O)NCCCCCC(=O)N2CCC(Nc3cc(C(=O)NC[C@H](O)CN4CCc5ccccc5C4)ncn3)CC2)NC(=O)[C@@H]2C[C@@H](O)CN2C(=O)[C@@H](NC(=O)C2(F)CC2)C(C)(C)C)cc1: active
Cc1ncsc1-c1ccc(CNC(=O)[C@@H]2C[C@@H](O)CN2C(=O)[C@@H](NC(=O)C2(F)CC2)C(C)(C)C)c(OCC(=O)NCCC(=O)N2CCC(Nc3cc(C(=O)NC[C@H](O)CN4CCc5ccccc5C4)ncn3)CC2)c1: active
Cc1ncsc1-c1ccc([C@H](CC(=O)NCCCCCCCC(=O)N2CCC(Nc3cc(C(=O)NC[C@H](O)CN4CCc5ccccc5C4)ncn3)CC2)NC(=O)[C@@H]2C[C@@H](O)CN2C(=O)[C@@H](NC(=O)C2(F)CC2)C(C)(C)C)cc1: active

Here is another molecule to look at.
IN: // outcome(item) with item = Cc1ncsc1-c1ccc([C@H](C)NC(=O)[C@@H]2C[C@@H](O)CN2C(=O)[C@@H](NC(=O)COCCOCCOCCOCCOCC(=O)N2CC(Nc3cc(C(=O)NC[C@H](O)CN4CCc5ccccc5C4)ccn3)C2)C(C)(C)C)cc1
OUT: inactive

Entry source: ChEMBL document CHEMBL6109159
